Test: Thermo Scientific Hypersil GOLD aQ, 100 × 2.1 mm, 1.9 µm, 30 °C, 0.3 mL/min, estimated dead time 0.73 min; A: water + 0.01% formic acid + 4 mM ammonium formate; B: methanol + 0.01% formic acid + 4 mM ammonium formate; gradient (min/%B) 0/5 1/5 8/100 12/100
Conditions: stereoisomer not certain
assay metric: LC retention time (min)

{"compound": "CC(C)c1ccc(NC(=O)N(C)C)cc1", "val": 9.15}
{"compound": "COP(N)(=S)Oc1ccccc1C(=O)OC(C)C (stereo unspecified)", "val": 9.04}
{"compound": "CCOc1ccc(NC(=O)OC(C)C)cc1OCC", "val": 9.37}
{"compound": "CCSCc1ccccc1OC(=O)NC", "val": 8.76}
{"compound": "COP(=S)(OC)SCN1C(=O)c2ccccc2C1=O", "val": 9.39}
{"compound": "CC1(c2ccc(Oc3ccccc3)cc2)OC(=O)N(Nc2ccccc2)C1=O (stereo unspecified)", "val": 10.2}
